These measurements were taken from patent US7705003B2.

Would you mind telling me the reported melting point of each entry?

For the compound CCNC(=O)N[C@H]1CC[C@H](CCN2CCN(c3cccc4c3CCC4)CC2)CC1 [Compound 5] , what melting point is on record?
198 to 200 °C

# lookup: melting point of O=C(N[C@H]1CC[C@H](CCN2CCN(c3cccc4c3CCC4)CC2)CC1)N1CCOCC1 [Compound 6]
181 to 182 °C

For the compound shown here, CCN(CC)C(=O)N[C@H]1CC[C@H](CCN2CCN(c3cccc4c3CCC4)CC2)CC1 [Compound 4] , give the reported melting point.
157 to 159 °C

Please give the measured melting point for this compound: CC(=O)N[C@H]1CC[C@H](CCN2CCN(c3cccc4c3CCCC4)CC2)CC1 [Compound 9]
187 to 189 °C
